Target: CDK6/cycD3 (Homo sapiens)
Sequence (Q00534 whole entry): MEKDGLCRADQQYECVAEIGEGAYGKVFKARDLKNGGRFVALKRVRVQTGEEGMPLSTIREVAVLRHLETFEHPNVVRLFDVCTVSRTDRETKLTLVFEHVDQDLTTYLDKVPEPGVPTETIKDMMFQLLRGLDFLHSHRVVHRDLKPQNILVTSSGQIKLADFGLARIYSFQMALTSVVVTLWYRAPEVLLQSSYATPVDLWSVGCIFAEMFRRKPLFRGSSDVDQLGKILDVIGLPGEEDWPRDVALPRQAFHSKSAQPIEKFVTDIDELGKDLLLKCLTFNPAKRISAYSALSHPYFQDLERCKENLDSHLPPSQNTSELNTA
Sequence (P30281 whole entry partner): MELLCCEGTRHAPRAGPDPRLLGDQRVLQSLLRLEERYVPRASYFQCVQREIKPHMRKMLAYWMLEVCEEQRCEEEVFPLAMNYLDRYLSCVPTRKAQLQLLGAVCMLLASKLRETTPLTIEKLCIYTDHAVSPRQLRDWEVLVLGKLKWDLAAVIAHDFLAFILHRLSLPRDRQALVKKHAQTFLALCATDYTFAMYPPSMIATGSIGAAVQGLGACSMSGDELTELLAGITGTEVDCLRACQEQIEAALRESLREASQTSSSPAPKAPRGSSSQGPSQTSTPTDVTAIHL
Assay: Determination of CDK activity (Caliper mobility shift, FAM-P8 peptide): CDK6
Assay type: biochemical
Conditions: CDK6/cycD3; read-out: CDK6 enzymatic inhibitory activity (IC50)
Protocol: In vitro, CDK (CDK4, CDK6, CDK1, CDK2, CDK7, and CDK9) kinase activity was tested by the following method. […] 5. Caliper Reading: Collect Data on Caliper. […]
MEASURED METRIC: IC50

> print(dat)
                                   compound        experimental.target  endpoint.result
1  CCN1CCC(C(O)c2ccc(Nc3ncc(F)c(-c4cc(F)c5nc(C)n(C(C)C)c5c4)n3)nc2)CC1 (single isomer, unassigned) [Example 40]  CDK6/cycD3 (Homo sapiens)         < 100 nM
2  Cc1nc2c(F)cc(-c3nc(Nc4ccc([C@H](C)C5CCN(C6CC6)CC5)cn4)ncc3F)cc2n1C(C)C  CDK6/cycD3 (Homo sapiens)         < 100 nM
3  CCN1CCC(C(OC(C)=O)c2ccc(Nc3ncc(F)c(-c4cc(F)c5nc(C)n(C(C)C)c5c4)n3)nc2)CC1 (single isomer, unassigned) [Example 71]  CDK6/cycD3 (Homo sapiens)         < 100 nM

Retrieve IC50 measured for `C=C(c1ccc(Nc2ncc(F)c(-c3cc(F)c4nc(C)n(C(C)C)c4c3)n2)nc1)N1CCN(CC)CC1` and print it. 100 to 500 nM

Retrieve IC50 measured for CCN1CCC(C(C)c2ccc(Nc3ncc(F)c(-c4cc(F)c5nc(C)n(C(C)C)c5c4)n3)nc2)CC1 (racemic) [Example 16] and print it. < 100 nM

Retrieve IC50 measured for `CCN1CCC([C@@H](OC)c2ccc(Nc3ncc(F)c(-c4cc(F)c5nc(C)n(C(C)C)c5c4)n3)nc2)CC1` and print it. 100 to 500 nM

Retrieve IC50 measured for `Cc1nc2c(F)cc(-c3nc(Nc4ccc(C=C5CCNCC5)cn4)ncc3F)cc2n1C(C)C` and print it. 500 to 1000 nM

* * *

# reported pIC50; entries follow
target: CDK9/cyclinTl (Homo sapiens, UniProt P50750); assay: Determination of CDK activity (Caliper mobility shift, FAM-P8 peptide): CDK9; format: biochemical; conditions: CDK9/cyclinTl; read-out: CDK9 enzymatic inhibitory activity (IC50)
Sequence (P50750 whole entry): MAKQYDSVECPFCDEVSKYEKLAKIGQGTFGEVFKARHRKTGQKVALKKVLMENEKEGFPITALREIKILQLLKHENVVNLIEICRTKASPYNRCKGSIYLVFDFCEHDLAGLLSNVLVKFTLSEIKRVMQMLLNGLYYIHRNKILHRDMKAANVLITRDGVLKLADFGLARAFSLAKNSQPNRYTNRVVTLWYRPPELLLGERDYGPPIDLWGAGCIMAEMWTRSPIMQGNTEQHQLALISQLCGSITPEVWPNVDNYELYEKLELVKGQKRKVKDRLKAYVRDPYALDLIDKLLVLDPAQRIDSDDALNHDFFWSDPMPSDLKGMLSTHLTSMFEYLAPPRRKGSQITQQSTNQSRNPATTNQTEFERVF
Sequence (O60563 whole entry partner): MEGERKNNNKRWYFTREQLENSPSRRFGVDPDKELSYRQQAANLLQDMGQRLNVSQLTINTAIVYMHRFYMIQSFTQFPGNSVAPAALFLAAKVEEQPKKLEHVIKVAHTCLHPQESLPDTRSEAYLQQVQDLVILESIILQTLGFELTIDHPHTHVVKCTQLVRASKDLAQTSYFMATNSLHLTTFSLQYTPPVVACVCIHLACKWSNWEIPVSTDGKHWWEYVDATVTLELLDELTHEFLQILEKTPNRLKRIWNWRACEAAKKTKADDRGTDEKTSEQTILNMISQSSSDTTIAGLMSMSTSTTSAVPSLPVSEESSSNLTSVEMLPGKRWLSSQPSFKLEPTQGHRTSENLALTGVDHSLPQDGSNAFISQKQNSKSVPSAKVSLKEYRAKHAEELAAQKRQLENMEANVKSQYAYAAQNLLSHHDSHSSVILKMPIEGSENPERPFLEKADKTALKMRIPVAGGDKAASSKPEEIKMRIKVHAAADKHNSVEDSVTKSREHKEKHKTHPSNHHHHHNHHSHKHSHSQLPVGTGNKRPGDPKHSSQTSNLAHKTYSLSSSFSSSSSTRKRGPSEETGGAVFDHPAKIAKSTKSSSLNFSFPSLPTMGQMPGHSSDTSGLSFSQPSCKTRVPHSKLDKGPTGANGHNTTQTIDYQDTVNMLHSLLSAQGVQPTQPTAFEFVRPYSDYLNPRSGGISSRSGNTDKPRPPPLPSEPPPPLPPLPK
pIC50: −log10 of the molar value.

Worked cases, pIC50 given:
> print(dat)
                                   compound  endpoint.result
1  Cc1nc2c(F)cc(-c3nc(Nc4ccc(C=C5CCN(CCO)CC5)cn4)ncc3F)cc2n1C(C)C [Example 67]     6.30 to 7.00
2  Cc1nc2c(F)cc(-c3nc(Nc4ccc(C(C)C5CCNCC5)cn4)ncc3F)cc2n1C(C)C (single isomer, unassigned) [Example 20]     6.00 to 6.30

Fill in pIC50 for Cc1nc2c(F)cc(-c3nc(Nc4ccc(C=C5CCN(C6CC6)CC5)cn4)ncc3F)cc2n1C(C)C [Example 66] tested with CDK9/cyclinTl (Homo sapiens, UniProt P50750). 6.30 to 7.00

Fill in pIC50 for Cc1nc2c(F)cc(-c3nc(Nc4ccc(C=C5CCN(C(C)C)CC5)cn4)ncc3F)cc2n1C(C)C [Example 64] tested with CDK9/cyclinTl (Homo sapiens, UniProt P50750). 6.30 to 7.00

Fill in pIC50 for Cc1nc2c(F)cc(-c3nc(Nc4ccc([C@H](O)C5CCN(C)CC5)cn4)ncc3F)cc2n1C(C)C [Example 49] tested with CDK9/cyclinTl (Homo sapiens, UniProt P50750). 6.30 to 7.00

Fill in pIC50 for C=C(c1ccc(Nc2ncc(F)c(-c3cc(F)c4nc(C)n(C(C)C)c4c3)n2)nc1)C1CCN(C)CC1 [Example 35] tested with CDK9/cyclinTl (Homo sapiens, UniProt P50750). > 7.00

Fill in pIC50 for CCN1CCC([C@H](OC)c2ccc(Nc3ncc(F)c(-c4cc(F)c5nc(C)n(C(C)C)c5c4)n3)nc2)CC1 [Example 46] tested with CDK9/cyclinTl (Homo sapiens, UniProt P50750). 6.30 to 7.00

* * *

target: CDK2/CycA2 (Homo sapiens, UniProt P24941); assay: Determination of CDK activity (Caliper mobility shift, FAM-P8 peptide): CDK2; format: biochemical; conditions: CDK2/CycA2; read-out: CDK2 enzymatic inhibitory activity (IC50)
MEASURED METRIC: IC50

> print(dat)
                                   compound                       experimental.target  endpoint.result
1  Cc1nc2c(F)cc(-c3nc(Nc4ccc(C=C5CCN(CC(F)(F)F)CC5)cn4)ncc3F)cc2n1C(C)C [Example 70]  CDK2/CycA2 (Homo sapiens, UniProt P24941)         < 100 nM
2  CCN1CCC(C(C)c2ccc(Nc3ncc(F)c(-c4cc(F)c5nc(C)n(C(C)C)c5c4)n3)nc2)CC1 (racemic) [Example 16]  CDK2/CycA2 (Homo sapiens, UniProt P24941)         < 100 nM
3  C=C(c1ccc(Nc2ncc(F)c(-c3cc(F)c4nc(C)n(C(C)C)c4c3)n2)nc1)C1CCN(C)CC1 [Example 35]  CDK2/CycA2 (Homo sapiens, UniProt P24941)         < 100 nM

Fill in IC50 for CC(=C1CCNCC1)c1ccc(Nc2ncc(F)c(-c3cc(F)c4nc(C)n(C(C)C)c4c3)n2)nc1 [Example 61] tested with CDK2/CycA2 (Homo sapiens, UniProt P24941). 100 to 500 nM

Fill in IC50 for Cc1nc2c(F)cc(-c3nc(Nc4ccc([C@@H](O)C5CCNCC5)cn4)ncc3F)cc2n1C(C)C [Example 44] tested with CDK2/CycA2 (Homo sapiens, UniProt P24941). 100 to 500 nM

Fill in IC50 for C=C(c1ccc(Nc2ncc(F)c(-c3cc(F)c4nc(C)n(C(C)C)c4c3)n2)nc1)N1CCN(CC)CC1 [Example 36] tested with CDK2/CycA2 (Homo sapiens, UniProt P24941). 500 to 1000 nM

Fill in IC50 for CCN1CCC(C(C)c2ccc(Nc3ncc(F)c(-c4cc(F)c5nc(C)n(C(C)C)c5c4)n3)nc2)CC1 (single isomer, unassigned) [Example 18] tested with CDK2/CycA2 (Homo sapiens, UniProt P24941). 100 to 500 nM

Fill in IC50 for CCN1CCC([C@@H](OC)c2ccc(Nc3ncc(F)c(-c4cc(F)c5nc(C)n(C(C)C)c5c4)n3)nc2)CC1 [Example 45] tested with CDK2/CycA2 (Homo sapiens, UniProt P24941). < 100 nM

Fill in IC50 for Cc1nc2c(F)cc(-c3nc(Nc4ccc([C@H](C)C5CCN(C6CC6)CC5)cn4)ncc3F)cc2n1C(C)C [Example 75] tested with CDK2/CycA2 (Homo sapiens, UniProt P24941). < 100 nM

Fill in IC50 for Cc1nc2c(F)cc(-c3nc(Nc4ccc([C@H](O)C5CCNCC5)cn4)ncc3F)cc2n1C(C)C [Example 43] tested with CDK2/CycA2 (Homo sapiens, UniProt P24941). 100 to 500 nM

Fill in IC50 for Cc1nc2c(F)cc(-c3nc(Nc4ccc(C=C5CCN(C(C)C)CC5)cn4)ncc3F)cc2n1C(C)C [Example 64] tested with CDK2/CycA2 (Homo sapiens, UniProt P24941). 100 to 500 nM

Fill in IC50 for CC[C@H](c1ccc(Nc2ncc(F)c(-c3cc(F)c4nc(C)n(C(C)C)c4c3)n2)nc1)N1CCN(C)CC1 [Example 7] tested with CDK2/CycA2 (Homo sapiens, UniProt P24941). 10000 to 100000 nM

Fill in IC50 for Cc1nc2c(F)cc(-c3nc(Nc4ccc(C=C5CCN(C6CC6)CC5)cn4)ncc3F)cc2n1C(C)C [Example 66] tested with CDK2/CycA2 (Homo sapiens, UniProt P24941). < 100 nM

Fill in IC50 for CCN1CCC(C(O)c2ccc(Nc3ncc(F)c(-c4cc(F)c5nc(C)n(C(C)C)c5c4)n3)nc2)CC1 (racemic) [Example 39] tested with CDK2/CycA2 (Homo sapiens, UniProt P24941). < 100 nM

Fill in IC50 for Cc1nc2c(F)cc(-c3nc(Nc4ccc([C@H](C)C5CCN(C(C)C)CC5)cn4)ncc3F)cc2n1C(C)C (single isomer, unassigned) [Example 73] tested with CDK2/CycA2 (Homo sapiens, UniProt P24941). < 100 nM

Fill in IC50 for CC(=C1CCN(C)CC1)c1ccc(Nc2ncc(F)c(-c3cc(F)c4nc(C)n(C(C)C)c4c3)n2)nc1 [Example 62] tested with CDK2/CycA2 (Homo sapiens, UniProt P24941). 100 to 500 nM

Fill in IC50 for Cc1nc2c(F)cc(-c3nc(Nc4ccc([C@@H](C)C5CCN(C(C)C)CC5)cn4)ncc3F)cc2n1C(C)C (single isomer, unassigned) [Example 74] tested with CDK2/CycA2 (Homo sapiens, UniProt P24941). 100 to 500 nM

Fill in IC50 for C=C(c1ccc(Nc2ncc(F)c(-c3cc(F)c4nc(C)n(C(C)C)c4c3)n2)nc1)C1CCN(CC)CC1 [Example 33] tested with CDK2/CycA2 (Homo sapiens, UniProt P24941). < 100 nM

Fill in IC50 for CC[C@H](c1ccc(Nc2ncc(F)c(-c3cc(F)c4nc(C)n(C(C)C)c4c3)n2)nc1)N1CCNCC1 [Example 5] tested with CDK2/CycA2 (Homo sapiens, UniProt P24941). 10000 to 100000 nM

Fill in IC50 for CC[C@@H](c1ccc(Nc2ncc(F)c(-c3cc(F)c4nc(C)n(C(C)C)c4c3)n2)nc1)N1CCNCC1 [Example 4] tested with CDK2/CycA2 (Homo sapiens, UniProt P24941). 1000 to 10000 nM

Fill in IC50 for Cc1nc2c(F)cc(-c3nc(Nc4ccc(C=C5CCNCC5)cn4)ncc3F)cc2n1C(C)C [Example 59] tested with CDK2/CycA2 (Homo sapiens, UniProt P24941). 100 to 500 nM
